Tested on: HL-60(TB) leukemia
Procedure Summary: NCI tumour cell line growth inhibition, 48 h
Test Readout: TGI

Enquiry: Quickly give me recorded TGI for O=C1N[C@H](Cc2cnc[nH]2)C(=O)N2CCC[C@@H]12
Return: > 100 µM

Enquiry: Quickly give me recorded TGI for NC(N)=N/N=C/c1oc(-c2ccc(S(=O)(=O)O)o2)c(-c2ccc(S(=O)(=O)O)o2)c1[N+](=O)[O-]
Return: > 100 µM

Enquiry: Quickly give me recorded TGI for CN(C)C(=O)N(CCCl)N=O
Return: > 100 µM

Enquiry: Quickly give me recorded TGI for Cc1ccc(N=Nc2c(C)nn(-c3ccccc3)c2-c2ccccc2)c(Br)c1
Return: > 100 µM

Enquiry: Quickly give me recorded TGI for COc1ccc(N=NC(=O)NC(CC(C)C)C(=O)NC(Cc2ccccc2)C(=O)O)cc1 (stereo not given)
Return: 8.18 µM

---

System: OVCAR-3 ovarian
Procedure Summary: NCI tumour cell line growth inhibition, 48 h
Test Readout: TGI (µM)
Report the figure in µM without appending any unit label.

Enquiry: Quickly give me recorded TGI for Nc1nc(N)c(-c2cccc(C(F)(F)F)c2)c(Cc2cccc(C(F)(F)F)c2)n1
Return: 22.1

Enquiry: Quickly give me recorded TGI for OCc1cn(Cc2ccc(Cl)cc2)c2ccccc12
Return: 8.23

Enquiry: Quickly give me recorded TGI for CCOc1ccc(Nc2nc(C)c(C(=O)/C=C/c3ccc(Cl)cc3Cl)s2)cc1
Return: 41

Enquiry: Quickly give me recorded TGI for CC(C)Cc1ccc(C(C)C(=O)NCc2ccc(Cn3c(=O)sn(CCCCl)c3=O)cc2)cc1 (configuration not stated)
Return: 2.03

Enquiry: Quickly give me recorded TGI for C=C1C(=O)OC2C1C(=O)C/C(C)=C/CCC1(C)OC21 (configuration not stated)
Return: 31.8

Enquiry: Quickly give me recorded TGI for Cc1nc(N)nc(N)c1CCCCc1ccccc1
Return: 99.4

Enquiry: Quickly give me recorded TGI for O=C(Nn1cc(F)c(=O)[nH]c1=O)C12CC3CC(CC(C3)C1)C2
Return: 35.1

Enquiry: Quickly give me recorded TGI for CCOC(=O)c1ccc2c(c1)nc(-c1ccc(Cl)cc1)n2-c1cc(C(C)(C)C)[nH]n1
Return: 5.65

Enquiry: Quickly give me recorded TGI for Clc1ccc(C2=Nc3ccccc3SC(c3cccs3)C2)cc1 (configuration not stated)
Return: 24

Enquiry: Quickly give me recorded TGI for CS(=O)(=O)Nc1ccc(Nc2c3ccccc3nc3cc([N+](=O)[O-])ccc23)cc1
Return: 5.87

Enquiry: Quickly give me recorded TGI for CCN(Cc1ccccc1F)c1ccc(CO)c(Cl)c1
Return: 1.5

---

System: U251 CNS
Procedure Summary: NCI tumour cell line growth inhibition, 48 h
Test Readout: TGI

Enquiry: Please look at COc1cc(-c2nc3nc(N4CCN(C)CC4)ccc3[nH]2)c(OC)c2[nH]c(CO)nc12 and tell me its recorded TGI on U251 CNS.
Return: > 100 µM

Enquiry: Please look at C[C@H](NC1=CC(=O)C(N[C@@H](C)[C@H](O)c2ccccc2)=CC1=O)[C@H](O)c1ccccc1 and tell me its recorded TGI on U251 CNS.
Return: > 100 µM

Enquiry: Please look at CN1CCC(SC2Cc3cc(Cl)ccc3Sc3ccccc32)CC1 (stereo unspecified) and tell me its recorded TGI on U251 CNS.
Return: 27.9 µM

Enquiry: Please look at S=c1ncc2n[nH]nc2[nH]1 and tell me its recorded TGI on U251 CNS.
Return: > 100 µM

Enquiry: Please look at OC[C@@H]1CC#C/C=C\C#CC[C@@H]1CO and tell me its recorded TGI on U251 CNS.
Return: > 100 µM

Enquiry: Please look at CC(C)Cc1ccc(C(C)C(=O)NCc2ccc(Cn3c(=O)sn(CCCCl)c3=O)cc2)cc1 (stereo unspecified) and tell me its recorded TGI on U251 CNS.
Return: 3.01 µM

Enquiry: Please look at CCN(Cc1cccnc1)c1ccc(CO)c(Cl)c1 and tell me its recorded TGI on U251 CNS.
Return: > 100 µM

Enquiry: Please look at O=[N+]([O-])C(=C1NCCN1)C(Cl)=C(Cl)Cl and tell me its recorded TGI on U251 CNS.
Return: > 100 µM

Enquiry: Please look at Cc1csc(-n2nc(C)cc2C)n1 and tell me its recorded TGI on U251 CNS.
Return: > 100 µM

Enquiry: Please look at Nc1nc[n+](Cc2ccccc2)c2ncn(Cc3ccccc3)c12 and tell me its recorded TGI on U251 CNS.
Return: > 100 µM

Enquiry: Please look at COc1ccc(-n2c(N)c(C#N)c(C#N)c2-c2cccc([N+](=O)[O-])c2)cc1 and tell me its recorded TGI on U251 CNS.
Return: > 100 µM

---

Please go through the items and note down their TGI.
Test system: SN12C renal
Procedure Summary: NCI tumour cell line growth inhibition, 48 h

Enquiry: Quickly give me recorded TGI for COc1ccc(C(=O)/C=C/c2c(OC)cc(OC)cc2OC)c(OC)c1
Return: > 100 µM

Enquiry: Quickly give me recorded TGI for NC1CCCCC1
Return: > 562 µM

Enquiry: Quickly give me recorded TGI for CCC(=O)O[C@@H]([C@H](C)[C@H]1OC(CC)=C(C)C(=O)[C@@H]1C)[C@@H](C)C(=O)CC
Return: > 100 µM

Enquiry: Quickly give me recorded TGI for O=C(O)c1ccc(Cc2ccccc2C(=O)O)cc1
Return: > 100 µM

Enquiry: Quickly give me recorded TGI for COC1CC(C)(NC(C)=O)C2OC(c3ccccc3)OCC2O1 (configuration not stated)
Return: > 100 µM

Enquiry: Quickly give me recorded TGI for O=C1Nc2ccccc2/C1=C/C(=O)c1ccc(N2CCCC2)cc1
Return: > 100 µM

Enquiry: Quickly give me recorded TGI for O=[N+]([O-])C(=C1NCCN1)C(Cl)=C(Cl)Cl
Return: > 100 µM

Enquiry: Quickly give me recorded TGI for Cc1ccc(S(=O)(=O)CC(=O)CC(=O)C(=O)Nc2cccc(C(F)(F)F)c2)cc1
Return: > 100 µM

Enquiry: Quickly give me recorded TGI for CCOc1ccccc1N1CSc2nnc(-c3ccccc3)n2C1
Return: > 100 µM

Enquiry: Quickly give me recorded TGI for CN(C)c1ccc(/C=C(\C#N)c2nc(-c3cc4ccccc4oc3=O)cs2)cc1
Return: > 50 µM

Enquiry: Quickly give me recorded TGI for O=C(Nc1ccccc1)C(=O)C(C(=O)c1ccccc1F)C1OC(=O)c2ccccc21 (configuration not stated)
Return: > 100 µM

Enquiry: Quickly give me recorded TGI for CCOc1ccc(Nc2nc(C)c(C(=O)/C=C/c3ccc(Cl)cc3Cl)s2)cc1
Return: 37.1 µM

Enquiry: Quickly give me recorded TGI for Cc1ncc(-c2nnnn2-c2ccccc2)c(C(=O)O)n1
Return: > 100 µM

Enquiry: Quickly give me recorded TGI for CC(C)Oc1c(N(Cc2ccccc2)c2ccccc2C2SCCCS2)c(=O)c1=O
Return: > 100 µM

Enquiry: Quickly give me recorded TGI for COc1ccc2c(c1)OCC1Cc3cc4c(cc3OC21)OCO4 (configuration not stated)
Return: > 100 µM

Enquiry: Quickly give me recorded TGI for CCCCCCCCCCOC1C(C(O)CNCCCN(C)C)OC2OC3(CCCCC3)OC21 (configuration not stated)
Return: 5.19 µM

Enquiry: Quickly give me recorded TGI for COc1c(Cl)cc(Cl)cc1S(=O)O
Return: > 100 µM

Enquiry: Quickly give me recorded TGI for COc1ccc2nc3cc(Cl)ccc3c(Nc3ccc(O)c(CN4CCN(C)CC4)c3)c2c1
Return: 3.93 µM

Enquiry: Quickly give me recorded TGI for O=C1c2ccccc2-c2c1c1ccc([N+](=O)[O-])cc1c(=O)n2CCCN1CCOCC1
Return: > 100 µM

Enquiry: Quickly give me recorded TGI for CCN(Cc1cccnc1)c1ccc(CO)c(Cl)c1
Return: > 100 µM

Enquiry: Quickly give me recorded TGI for O=C(c1ccccc1)c1c(C(F)(F)F)n([O-])c2ccc(F)cc2[n+]1=O
Return: 2.57 µM

Enquiry: Quickly give me recorded TGI for COc1ccc([As]=[As]c2ccc(OC)c(NCS(=O)(=O)O)c2)cc1NCS(=O)(=O)O (configuration not stated)
Return: 3.34 µM

Enquiry: Quickly give me recorded TGI for CN(C)c1ccc(C2SCC(=O)N2c2nc3cc4sc(N5C(=O)CSC5c5ccc(N(C)C)cc5)nc4cc3s2)cc1 (configuration not stated)
Return: > 100 µM

Enquiry: Quickly give me recorded TGI for CCOC(=O)/C(=N/Nc1ccc(C)cc1)N1C(=S)C=C(C)NN(C)C1=S
Return: > 100 µM

Enquiry: Quickly give me recorded TGI for S=c1sc2c(s1)SCc1cccc(n1)CSc1sc(=S)sc1SCc1cccc(n1)CS2
Return: > 100 µM

Enquiry: Quickly give me recorded TGI for O=C(O)CCn1cnc2c(=S)nc[nH]c21
Return: > 100 µM

Enquiry: Quickly give me recorded TGI for OCCN(CCO)CCn1cnc2c(NCc3ccccc3)ncnc21
Return: > 100 µM

Enquiry: Quickly give me recorded TGI for O=c1ssc2c1Nc1c(ssc1=O)S2
Return: 28.1 µM

Enquiry: Quickly give me recorded TGI for CCCCCCCCCCCCCCCCCC(=O)NCC(COP(=O)([O-])OCC[N+](C)(C)C)OC (configuration not stated)
Return: 15.3 µM

Enquiry: Quickly give me recorded TGI for CCOC(=O)c1nnsc1NC(=O)NN
Return: > 100 µM

Enquiry: Quickly give me recorded TGI for Cc1nc2ccc(Nc3nc(Cl)nc(Nc4ccc(F)cc4)n3)cc2n1Cc1ccccc1
Return: 38.3 µM

Enquiry: Quickly give me recorded TGI for CCOC(=O)C(Cc1c(C=O)[nH]c2ccccc12)(NC(=O)c1ccccc1)C(=O)OCC
Return: 26.6 µM

Enquiry: Quickly give me recorded TGI for O=CC12c3ccccc3C(c3ccccc31)C1C(=O)NC(=O)C12 (configuration not stated)
Return: > 100 µM

Enquiry: Quickly give me recorded TGI for O=C1CSC(c2cccc([N+](=O)[O-])c2)N1c1ccc(-c2ccc(-n3c(-c4ccccc4)nc4ccccc4c3=O)cc2)cc1 (configuration not stated)
Return: > 100 µM

Enquiry: Quickly give me recorded TGI for O=C1c2ccccc2C(=O)c2c(Nc3ccc(CCO)cc3)ccc(O)c21
Return: > 100 µM

Enquiry: Quickly give me recorded TGI for COc1cc2cc(c1Cl)N(C)C(=O)C[C@H](OC(=O)[C@H](C)N(C)C(=O)CCS)C[C@]1(C)O[C@H]1[C@H](C)[C@@H]1C[C@@](O)(NC(=O)O1)[C@H](OC)/C=C/C=C(\C)C2
Return: > 50 µM

Enquiry: Quickly give me recorded TGI for CN(C)c1ccc(C(C#N)NNC(=O)Cc2ccccc2)cc1 (configuration not stated)
Return: > 100 µM

Enquiry: Quickly give me recorded TGI for COc1ccc(/C=N/Nc2nc(-c3cc4oc(=O)n(C)c4cc3Cl)cs2)cc1OC
Return: 88.5 µM

Enquiry: Quickly give me recorded TGI for O=C1/C(=N\n2c(-c3ccncc3)n[nH]c2=S)c2cc(Cl)ccc2N1CN1CCCCC1
Return: > 100 µM

Enquiry: Quickly give me recorded TGI for C/C(=N\NC(=O)c1ccc(C(C)(C)C)cc1)c1ccc(O)cc1O
Return: > 100 µM

Enquiry: Quickly give me recorded TGI for COc1cc(-c2nc3nc(N4CCN(C)CC4)ccc3[nH]2)c(OC)c2[nH]c(CO)nc12
Return: > 100 µM

Enquiry: Quickly give me recorded TGI for CCCCCCCCCCCCCCCCSC(=NCC)NCC
Return: 2.98 µM
